Assay: folding stability dG unfold from chymotrypsin proteolysis; higher = more stable
Below, each of the sequences is paired with its reported folding stability dG unfold value.
Quick note: give the figure in kcal/mol, leave out the unit.

// known answers, use as guide
1) SAGGNGRKKVKIDISIMIPIPPNDMPPEQRMKLAKELAERIARSLARKEGADPDKIDEVKVRFHIFPWSAGG [r13_5_TrROS] : 2.65
2) SAGGSAGGSAGGKKTITVTVKINGKTYRVEIKYDEKTKKVTIKIEVNGKKYEFEFELKDSAGGSAGGSAGGS [r10_438_TrROS_Hall] : 4.42
3) SAGGSAGGSANMPPEELADWIADKFQQRHGHPVKEIEVEHDPENNNYTITVEFDDKERTITLSAGGSAGGSA [r18_145_TrROS] : 0.839
4) SAGGSAMMTVTITIPKENLTKEEIKKALEEAGAKVVKVEEKDGKVTVTVEMTPEQVEKLKEALKKLSAGGSA [r15_161_TrROS_Hall] : 3.53
5) SAGGSAGGSAGGSMVITIEYTGSVEDLIKKLKEEGLDVKVLEVKFDPKTGKYTVTLEVKSAGGSAGGSAGGS [r4_315_JUSTAS] : 4.22

Please look at this sequence and report its folding stability dG unfold: SAGGSAGGSAGKLPPGAKVEEVFEVEIEVTYLNPDTGEEVEKEKITVRVVKVDGKLVIEFSAGGSAGGSAGG [r11_415_TrROS_Hall]
2.79

Please look at this sequence and report its folding stability dG unfold: SAGGSAGGSPPPITIFTAYKDPEDGPYWMKRRKINPDNGNIEEEWYPADDLADHGLPPGDIFISAGGSAGGS [r12_123_TrROS]
0.413

----------
Assay: folding stability dG unfold from trypsin proteolysis; higher = more stable
endpoint: folding stability dG unfold (kcal/mol)
Quick note: give the figure in kcal/mol, leave out the unit.

1. SAKEIASGTFLLDNGATLTVTSIKYDPETGKVSIPVELTVYVPKIDPNDPNKPTIEPFTFKITFTFKVDSAG [r14_888_TrMRF] : 2.51
2. SAGGSAMKITLKTKDGKEIEIEVEEKTNENGEKYLVLKIKDKKTNKEYTIVMSKEELEELLKKLLSSAGGSA [r15_92_TrROS_Hall] : 4.33

Please look at this sequence and report its folding stability dG unfold: SAGGSAGGGMNATPKKIKVTITITDPSGNKTTVTREFDSEEEAEKFVKELLPPNRSYTVTYEPESAGGSAGG [r6_290_JUSTAS]
2.94

Please look at this sequence and report its folding stability dG unfold: SAGGSAGGSAGPGEPVPIRLKIYGPNGQPHTHPFPVKNPEEFKDNLRFPVPNGWAVEIEYSAGGSAGGSAGG [r11_671_TrROS]
-0.719

Please look at this sequence and report its folding stability dG unfold: SPIVTDLPPKEATRVEVEALVEELEAKGEPPREVVVYDPSRGVPLATIPVTSREELLAAVEAGRPFRVLLSA [r9_718_JUSTAS]
-0.697

Please look at this sequence and report its folding stability dG unfold: SAGGSAGGSAPNLEVEEQRNPDGGMEMEIIRLKNDGLTIFFMEMRPDDKTMTMLMLMPLDASAGGSAGGSAG [r3_126_TrROS]
2.19

Please look at this sequence and report its folding stability dG unfold: SAGMPITVDSEVDPETGTTTYTITMPRGPGEPVTVTIPVTYSDDSVTIEVTASPGVDAAEIKALIEKQSSAG [r5_478_JUSTAS]
0.645
